Catalogue of compounds with associated melting point

CC(C)(Oc1cccc(-c2ccc(CN3C(=O)C4(CCCC4)N=C3Cc3ccccc3)cc2)c1)C(=O)O [Compound 28] :: 149 to 153 °C
CCCCC1=NC2(CCCC2)C(=O)N1Cc1ccc(-c2cccc(OCC#N)c2)cc1 [Compound 23] :: 128 to 130 °C
CC(C)(Oc1cccc(-c2ccc(CN3C(=O)C4(CCCC4)N=C3C3CC3)cc2)c1)C(=O)O [Compound 29] :: 175 to 177 °C
CCCCC1=NC2(CCCCC2)C(=O)N1Cc1ccc(-c2ccc(OC(C)(C)C(=O)O)cc2)cc1 [Compound 25] :: 75 to 77 °C
CCCCC1=NC2(CCCCC2)C(=O)N1Cc1ccc(-c2cc(OC(C)(C)C(=O)O)ccc2Br)cc1 [Compound 22] :: 170 to 172 °C

Exercise: Given CCCCC1=NC2(CCCC2)C(=O)N1Cc1ccc(-c2cccc(OC(C)(C)C(=O)O)c2)cc1 [Compound 1] , state its recorded melting point.
Key: 169 to 171 °C

Exercise: Field request: melting point | item: CCCCC1=NC2(CCCCC2)C(=O)N1Cc1ccc(-c2cccc(OCC(=O)O)c2)cc1 [Compound 52]
Key: 82 to 85 °C

Exercise: Which melting point is reported for this compound? CCCCC1=NC2(CCCC2)C(=O)N1CCc1ccc(OC(C)(C)C(=O)O)cc1 [Compound 3]
Key: 50 to 53 °C

----------
Value type: melting point

Here's what some known entries look like.
CCCCC1=NC(c2ccccc2)C(=O)N1Cc1ccc(C(=O)c2ccc(OC(C)(C)C(=O)O)cc2)cc1 (centres unmarked) :: 215 to 217 °C
CCCCC1=NC2(CCCC2)C(=O)N1Cc1ccc(-c2cc(OC(C)(C)C(=O)O)ccc2Br)cc1 :: 174 to 176 °C
CCCCC1=NC2(CCCC2)C(=O)N1Cc1ccc(C(=O)c2ccccc2OC(C)(C)C(=O)O)cc1 :: 85 to 90 °C
CCCCC1=NC2(CCCC2)C(=O)N1Cc1ccc(-c2ccc([N+](=O)[O-])c(OC(C)(C)C(=O)O)c2)cc1 :: < 50 °C
CCCCC1=NC2(CCCC2)C(=O)N1Cc1ccc(-c2cc(OC(C)(C)C(=O)O)ccc2C#N)cc1 :: < 50 °C
CCCCC1=NC(c2ccccc2)C(=O)N1Cc1ccc(-c2cc(Br)ccc2OC(C)(C)C(=O)O)cc1 (centres unmarked) :: 199 to 201 °C
CCCCC1=NC2(CCCCC2)C(=O)N1Cc1ccc(-c2cc(OCC(=O)O)ccc2F)cc1 :: 102 to 105 °C
CCCC1=NC2(CCCC2)C(=O)N1Cc1ccc(-c2cccc(OC(C)(C)C(=O)O)c2)cc1 :: 134 to 190 °C

Exercise: For `CCCCC1=NC2(CCCC2)C(=O)N1Cc1ccc(Cc2ccc(OC(C)(C)C(=O)O)cc2)cc1` , what is its reported melting point?
Key: 147 to 149 °C

Exercise: Looking for the measured melting point of `CCCCC1=NC2(CCCC2)C(=O)N1Cc1ccc(-c2cccc(OC(C)(C)C(=O)O)c2F)cc1` , can you help?
Key: 162 °C

----------
Value type: melting point (°C)
Give just the number in °C; leave the unit off.

CCCCC1=NC2(CCCCC2)C(=O)N1Cc1ccc(-c2cc(OC(C)C(=O)O)ccc2F)cc1 (stereo not shown) :: 96
CCCCC1=NC2(CCCC2)C(=O)N1Cc1ccc(-c2ccc(OC(C)(C)C(=O)O)cc2)cc1 :: 180

Exercise: Please report the recorded melting point for CCCCC1=NC2(CCCCC2)C(=O)N1Cc1ccc(-c2cccc(OC(CC)C(=O)O)c2)c(C)c1 (stereo not shown) .
Key: 77

----------
Value type: melting point (°C)
# value in °C; strip the unit string

CCCCC1=NC2(CCCCC2)C(=O)N1Cc1ccc(-c2cccc(OC(C)C(=O)O)c2)cc1 (stereo not shown) :: 85
CCCCC1=NC2(CCCC2)C(=O)N1Cc1ccc(-c2cc(OC(C)(C)C(=O)O)ccc2CC)cc1 :: 143
CCCCC1=NC2(CCCC2)C(=O)N1Cc1ccc(-c2cc(OC(C)C(=O)O)ccc2CCC)cc1 (stereo not shown) :: 76
CCCCC1=NC(CC)(CC)C(=O)N1Cc1ccc(-c2cccc(OC(C)(C)C(=O)O)c2)cc1 :: 144
CCCCC1=NC(CC)(CC)C(=O)N1Cc1ccc(-c2cc(OC(C(=O)O)C(C)C)ccc2F)cc1 (stereo not shown) :: 65

Now examine the next entry.
Exercise: Request the reported melting point associated with CCCCC1=NC(CC)(CC)C(=O)N1Cc1ccc(-c2cccc(OC(CC)C(=O)O)c2)cc1 (stereo not shown)
Key: 184

----------
This listing pairs compounds with measured melting point.

Before answering, review these 3 worked examples.
CC(C)CC1=NC2(CCCC2)C(=O)N1Cc1ccc(-c2cccc(OC(C)(C)C(=O)O)c2)cc1 [Compound 27] :: 213 to 216 °C
CCCCC1=NC2(CCCC2)C(=O)N1Cc1ccc(-c2cc(OC(C)(C)C(=O)O)ccc2CCC)cc1 [Compound 76] :: < 60 °C
CCCCC1=NC2(CCCCC2)C(=O)N1Cc1ccc(-c2cccc(OC(C)(C)C(=O)O)c2)cc1 [Compound 21] :: 160 to 162 °C

Next, consider the following compound.
Exercise: Need melting point of CC1=NC2(CCCC2)C(=O)N1Cc1ccc(-c2cccc(OC(C)(C)C(=O)O)c2)cc1 [Compound 18] , thanks.
Key: 81 to 88 °C

----------
Value type: melting point

Some solved entries appear below for comparison.
CCCCC1=NC2(CCCC2)C(=O)N1Cc1ccc(-c2cc(OC(C)(C)C(=O)O)ccc2CC(C)C)cc1 :: < 50 °C
CCCCC1=NC2(CCCC2)C(=O)N1Cc1ccc(C(=O)c2ccc(OC(C)(C)C(=O)O)cc2)cc1 :: 90 to 99 °C
CCCCC1=NC2(CCCC2)C(=O)N1Cc1ccc(-c2ccccc2OC(C)(C)C(=O)O)cc1 :: 74 to 80 °C

Now for the molecule whose melting point we want.
Exercise: Recorded melting point of `CCCCC1=NC2(CCCCC2)C(=O)N1Cc1ccc(C(=O)c2cccc(OC(C)(C)C(=O)O)c2)cc1` , please.
Key: 68 to 75 °C

Reference source for all entries: patent US20100004159A1
